Origin of the recorded values: the supplement of paper PMC9170038

- System: MS2 coat protein
- assay-overview: apparent KD of MS2 coat protein; designed switch direction (-1 OFF switch, 1 ON switch): 1; higher = weaker reporter binding
- conditions-used: input ligand: microRNA oligo, concentration not stated
apparent KD of MS2 coat protein vs 0.04 µM: at or above is Condition met, below is Condition not met.

INSERT INTO measurements (sequence_code, category_label) VALUES
  ('AUUGCUAUCACAGGAUAUCAUGCGGAAAUCGCGUGAGAAGGGUGGACUCUGUCAUUCACGGAGGACAUGAGGAUCACCCAUGUC [SS NG10LRO17] (Eterna round: R96, puzzle: Same State NG 1)', 'Condition not met'),
  ('GAGGGACAGACCAACAUGAGGAUCACCCAUGUCCUCGCAGGUCAGGAUAUUAUUAGGAUCACCAGUGAGAAGGGACGGUGAAGG (Eterna round: R96, puzzle: Same State NG 3)', 'Condition met'),
  ('CCGCGCUGUCGAGAGGAUAUGCGGUGAUGGACAUGAGGAUCACCCAUGUUAGCGAUAGCAUUACUGUAGAAGGCUCUACGGCGGC [JL-ss2-3.09 ViennaUCT mod] (Eterna round: R96, puzzle: Same State 2)', 'Condition not met'),
  ('UUGCUCGUGUGAGGAUAUGCCGCCGUUUCGGCUGCAGAAGGUACUCUUAUACAUGAGGAUCACCCAUGUCUCUGUUGUUUCGUG [salish99_SSNG1_r04_936] (Eterna round: R96, puzzle: Same State NG 1)', 'Condition met'),
  ('UUAAUAAUGAUAGGAUAUACAUGAGGAAUUCUCGUAGAAGGAUCAUGACAUGAGGAUCACCCAUGUAACGCUCGGAAGAGCGUA [Mat - Same State NG 1 - JL mod - D38] (Eterna round: R96, puzzle: Same State NG 1)', 'Condition met'),
  ('AGCUAAAACGAAGGAUAUACUGACAUGAGGAUCACCCAUGUCUACAUGAUUUAUUGUGAUCACAUGUAGAAGGUCGUACUAACA [SameState NG2 #22] (Eterna round: R96, puzzle: Same State NG 2)', 'Condition met'),
  ('GCUGCAAUAAACGCCUACAUGAGGAUCACCCAUGUAUGUAGGCAGGAUAUCGUAUGCAAAGCAUACGAGAAGGGCUGUAGUAGC [Mat - Same State NG 3 - JL Mod - D39] (Eterna round: R96, puzzle: Same State NG 3)', 'Condition met'),
  ('GUAGCAUACCGAGGAUAUUCUACAUGAGGAUCACCCAUGUUUAAUAGGCCACAUUAGUGGCCUUGGGAGAAGGCGGAAUGCUAC [Xeonanis - 20 Mod47] (Eterna round: R96, puzzle: Same State NG 2)', 'Condition not met'),
  ('GCUAGUAUUAUUGCUAACAUGAGGAUCACCCAUGUAUGUUGGCAGGAUAUCGUUUGCUUUGCAAACGAGAAGGGCUAAACUAGC [JL SSNG3 1.05] (Eterna round: R96, puzzle: Same State NG 3)', 'Condition met'),
  ('UUAUCUCUUACAUGAGGAUCACCCAUGUUUUUAUGUCUUAGACAGGAUAUAGUAGUCUCGUAUUACUAGAAGGGUCUUUUUAUU [JR_SSNG3_Sub020] (Eterna round: R96, puzzle: Same State NG 3)', 'Condition not met'),
  ('UGGUACAUGGGAGGAUAUCUCAUGGAGACAUGAGGAUCACCCAUGUAGUUGGACCGGAAACGGUGAGAGAAGGCCCAUGUACCU [JL SSNG1 3.72] (Eterna round: R96, puzzle: Same State NG 2)', 'Condition met'),
  ('GUAGCAUACCGAGGAUAUUCAUAUACAUGAGGAUCACCCAUGUUUAUAUAGGCCAAAAGGCCUUGGGAGAAGGCGGAAUGCUAC [Xeonanis - 20 Mod10] (Eterna round: R96, puzzle: Same State NG 2)', 'Condition not met'),
  ('GGAGAACAUGAGGAUCACCCAUGUGGAUGGGCGCUAGGAUAUGCGAGAGGGUGAAGAGAAGCAGAAGGAGUGGAUA [JR_SS1_Sub036] (Eterna round: R96, puzzle: Same State 1)', 'Condition met'),
  ('GUUACAUGAGGAUCACCCAUGUAUGUGUGGGAGUAAGUGUCUUAGGAUAUCUGUGAUUUAAUUUAAGAGAAGGAAGAUUGUUGU [JMF''s solution 32] (Eterna round: R96, puzzle: Same State NG 3)', 'Condition met'),
  ('AAAAGAAACACAGGAUAUACCGCGCUUAACGCGGUAGAAGGGUGGGACAUGAGGAUCACCCAUGUGGCCUGAGCGCCAGGCCGC [Uszadi] (Eterna round: R96, puzzle: Same State NG 1)', 'Condition not met'),
  ('GCUCGUAUGAUGACCGACAUGAGGAUCACCCAUGUGUGUCGGUAGGAUAUCUAUAUUAAGGAUAUAGAGAAGGGCCCAACGAGC [SameState NG3 #18] (Eterna round: R96, puzzle: Same State NG 3)', 'Condition met');
